Target: GABAA receptor ([35S]-TBPS binding, rat brain cortical membranes)
Assay: Steroid inhibition of [35S]-TBPS binding
Details: Table II-2, 3 nM [35S]-TBPS, in the presence of 5 mM GABA, read-out: TBPS IC50
pIC50: −log10 of the molar value.
pIC50 values for the molecules below.

- molecule: "C=C[C@]12CC[C@@](C)(O)C[C@@H]1CC[C@H]1[C@@H]3CC[C@H](C(C)=O)[C@@]3(C)CC[C@@H]12"
  target-desc: "GABAA receptor ([35S]-TBPS binding, rat brain cortical membranes)"
  pIC50: "7.00 to 8.00"
- molecule: "CC[C@]12CC[C@@](C)(O)C[C@H]1CC[C@H]1[C@@H]3CC[C@H](C(=O)c4ccccc4C)[C@@]3(C)CC[C@@H]12"
  target-desc: "GABAA receptor ([35S]-TBPS binding, rat brain cortical membranes)"
  pIC50: "7.00 to 8.00"
- molecule: "CC[C@]12CC[C@](O)(COC)C[C@@H]1CC[C@H]1[C@@H]3CC[C@H](C(=O)Cn4ccc(C#N)n4)[C@@]3(C)CC[C@@H]12"
  target-desc: "GABAA receptor ([35S]-TBPS binding, rat brain cortical membranes)"
  pIC50: "> 8.00"
- molecule: "CCOC[C@@]1(O)CC[C@@]2(CC)[C@@H](CC[C@H]3[C@@H]4CC[C@H](C(=O)Nc5ccc(C#N)cc5C)[C@@]4(C)CC[C@@H]32)C1"
  target-desc: "GABAA receptor ([35S]-TBPS binding, rat brain cortical membranes)"
  pIC50: "7.00 to 8.00"
- molecule: "CCOC[C@@]1(O)CC[C@@]2(CC)C(CC[C@@H]3[C@@H]2CC[C@]2(C)[C@@H](C(=O)Cn4nnc(C)n4)CC[C@@H]32)C1 (stereo in doubt)"
  target-desc: "GABAA receptor ([35S]-TBPS binding, rat brain cortical membranes)"
  pIC50: "7.00 to 8.00"
- molecule: "CCOC[C@@]1(O)CC[C@@]2(CC)[C@H](CC[C@H]3[C@@H]4CC[C@H](C(=O)N5CCCC[C@H]5C)[C@@]4(C)CC[C@@H]32)C1"
  target-desc: "GABAA receptor ([35S]-TBPS binding, rat brain cortical membranes)"
  pIC50: "7.00 to 8.00"
- molecule: "CCOC[C@@]1(O)CC[C@@]2(CC)[C@H](CC[C@H]3[C@@H]4CC[C@H](C(=O)N5CCCC[C@@H]5C)[C@@]4(C)CC[C@@H]32)C1"
  target-desc: "GABAA receptor ([35S]-TBPS binding, rat brain cortical membranes)"
  pIC50: "6.00 to 7.00"
- molecule: "CC[C@]12CC[C@@](C)(O)C[C@H]1CC[C@H]1[C@@H]3CC[C@H](C(=O)Nc4ccccc4)[C@@]3(C)CC[C@@H]12"
  target-desc: "GABAA receptor ([35S]-TBPS binding, rat brain cortical membranes)"
  pIC50: "> 8.00"
- molecule: "CC[C@]12CC[C@@](C)(O)C[C@H]1CC[C@H]1[C@@H]3CC[C@H](C(=O)Cn4nc5ccc(OC)cc5n4)[C@@]3(C)CC[C@@H]12 (single isomer, unassigned)"
  target-desc: "GABAA receptor ([35S]-TBPS binding, rat brain cortical membranes)"
  pIC50: "> 8.00"
- molecule: "CCOC[C@@]1(O)CC[C@@]2(CC)[C@H](CC[C@H]3[C@@H]4CC[C@H](C(=O)Cn5ccc(C#N)n5)[C@@]4(C)CC[C@@H]32)C1"
  target-desc: "GABAA receptor ([35S]-TBPS binding, rat brain cortical membranes)"
  pIC50: "> 8.00"
- molecule: "CCOC[C@@]1(O)CC[C@@]2(CC)[C@@H](CC[C@H]3[C@@H]4CC[C@H](C(=O)Cn5nnnc5C)[C@@]4(C)CC[C@@H]32)C1"
  target-desc: "GABAA receptor ([35S]-TBPS binding, rat brain cortical membranes)"
  pIC50: "6.00 to 7.00"
